# Tested on: OVCAR-3
# Method: NCI tumour cell line growth inhibition, 48 h
Activity calls are given as the source filed them. Cut-off read from the data, not from the text of the source: active = GI50 up to about 1.1 µM and inactive = higher.
Reply using exactly one outcome from TRUE for active, FALSE for inactive

Use the examples below as a reference point.
CCN(CC)CCNc1n[n+]([O-])c2cc([N+](=O)[O-])ccc2[n+]1[O-]    TRUE
C(=C\Nc1ccc(Oc2ccccc2)cc1)/C=N/c1ccc(Oc2ccccc2)cc1    FALSE
S=C(S)N1CCN(c2ccccc2)CC1    FALSE
CC(C)=Cc1cc(C(=O)Nc2ccc(Cl)c(Cl)c2)nc(N)n1    FALSE

Dear all, I need the recorded test outcome for NC(Cc1ccnnc1)C(=O)O (stereo not drawn) , thank you.
FALSE

Dear all, I need the recorded test outcome for C=C1Oc2nc3ccccc3c(=O)n2C1(C)C , thank you.
FALSE

Dear all, I need the recorded test outcome for COc1ccc(OC)c(/C=C/NC=O)c1 , thank you.
FALSE

Dear all, I need the recorded test outcome for OC1c2ccccc2C(O)C2OC12 (stereo not drawn) , thank you.
FALSE
